Record form. Attribute: % siRNA encapsulation. Fill in for each entry.
- PROCEDURE_SUMMARY: siRNA/mRNA encapsulation rate by Ribogreen reagent (section IV)
- Assay type: physicochemical
- MEASUREMENT_PARAMETERS: F7siRNA-loaded LNP, 50:10:38.5:1.5, N/P ratio 6
- Procedure: The encapsulation rates of siRNA and mRNA of lipid nanoparticles were measured with Ribogreen reagent. […] Nucleic acid concentration was calculated by calibration curve created by measuring the fluorescence intensity of nucleic acid solution containing 1% X-triton100 (nucleic acid concentration: 0-2.5 μg/mL) as same as aforementioned. […] The encapsulation rate of mRNA of lipid nanoparticles was measured using Ribogreen (manufactured by life technologies).
Could you give me the number in %? Just the number is fine.

What measured % siRNA encapsulation goes with CCCCCCCCCC(CCCCCC)C(=O)OCCCCCCC(O)(CCCCCCOC(=O)C(CCCCCC)CCCCCCCCC)CCCCN(CCC)CCC (stereo not drawn) [CL4F 11-6] ?
99.9

Note, next up: CCCCCCCCCC(CCCCCCCCC)C(=O)OCCCCCCC(O)(CCCCCCOC(=O)C(CCCCCCCCC)CCCCCCCCC)CCCCOC(=O)C1CCN(C)CC1 [CL15F 11-9]
101.1

Note, next up: CCCCCCCCCCCC(CCC)C(=O)OCCCCCCC(O)(CCCCCCOC(=O)C(CCC)CCCCCCCCCCC)CCCCOC(=O)C1CCN(C)CC1 (stereo not drawn) [CL15F 13-3]
100.3

Note, next up: CCCCCCCCCCCCC(CC)C(=O)OCCCCCCC(O)(CCCCCCOC(=O)C(CC)CCCCCCCCCCCC)CCCCN(CCC)CCC (stereo not drawn) [CL4F 14-2]
98.0

Note, next up: CCCCCCCCCCC(CCCC)C(=O)OCCCCCCC(O)(CCCCCCOC(=O)C(CCCC)CCCCCCCCCC)CCCCN(CCC)CCC (stereo not drawn) [CL4F 12-4]
100.1

Note, next up: CCCCCC(CCCCC)C(=O)OCCCCCCC(O)(CCCCCCOC(=O)C(CCCCC)CCCCC)CCCCOC(=O)C1CCN(C)CC1 [CL15F 7-5]
98.8

* * *

- Test system: liver
- PROCEDURE_SUMMARY: In vivo Fluc activity of FlucmRNA-loaded LNP by in vivo imaging, liver
- MEASUREMENT_PARAMETERS: Balb/c mice, FlucmRNA-loaded LNP i.v. 0.1 mg mRNA/kg, 6 hours
Record form. Attribute: Fluc Activity in liver. Fill in for each entry.
Could you give me the number in Avg Radiance [p/s/cm2/sr]? Just the number is fine.

What measured Fluc Activity in liver goes with CCCCCCCC(CCCCC)C(=O)OCCCCCCC(O)(CCCCCCOC(=O)C(CCCCC)CCCCCCC)CCCCN(CCC)CCC (stereo not drawn) ?
6.84E+07

Note, next up: CCCCCCCCC(CCCCCCC)C(=O)OCCCCCCC(O)(CCCCCCOC(=O)C(CCCCCCC)CCCCCCCC)CCCCN(CCC)CCC (stereo not drawn)
1.19E+08

Note, next up: CCCCCCCCCC(CCCCCCCCC)C(=O)OCCCCCCC(O)(CCCCCCOC(=O)C(CCCCCCCCC)CCCCCCCCC)CCCCOC(=O)C1CCN(C)CC1 [CL15F 11-9]
3.66E+07

Note, next up: CCCCCCCCCCCC(CCC)C(=O)OCCCCCCC(O)(CCCCCCOC(=O)C(CCC)CCCCCCCCCCC)CCCCOC(=O)C1CCN(C)CC1 (stereo not drawn) [CL15F 13-3]
3.51E+06

Note, next up: CCCCCCCCC(CC)C(=O)OCCCCCCC(O)(CCCCCCOC(=O)C(CC)CCCCCCCC)CCCCN(CCC)CCC (stereo not drawn)
3.02E+07

Note, next up: CCCCCCCCC(CCCCC)C(=O)OCCCCCCC(O)(CCCCCCOC(=O)C(CCCCC)CCCCCCCC)CCCCN(CCC)CCC (stereo not drawn)
1.06E+08

* * *

- System: F7
- PROCEDURE_SUMMARY: In vivo F7 knockdown, plasma F7 enzyme activity (BIOPHEN FVII), Balb/c mice
- MEASUREMENT_PARAMETERS: i.v. 0.025 mg siRNA/kg, plasma at 24 hours, relative plasma F7 activity of MC3 LNP as 1
Record form. Attribute: F7 enzyme activity (Ratio using MC3 as 1). Fill in for each entry.
Field format: numeric only.

What measured F7 enzyme activity (Ratio using MC3 as 1) goes with CCCCCCCCCCC(CCCCCCCCCC)C(=O)OCCCCCCC(O)(CCCCCCOC(=O)C(CCCCCCCCCC)CCCCCCCCCC)CCCCOC(=O)C1CCN(C)CC1 [CL15F 12-10] ?
0.51

Note, next up: CCCCCCCCCC(CCCCCCCCC)C(=O)OCCCCCCC(O)(CCCCCCOC(=O)C(CCCCCCCCC)CCCCCCCCC)CCCCOC(=O)C1CCN(C)CC1 [CL15F 11-9]
0.50

Note, next up: CCCCCCCCCCCCCCCC(=O)OCCCCCCC(O)(CCCCCCOC(=O)CCCCCCCCCCCCCCC)CCCCOC(=O)C1CCN(C)CC1 [CL15F 16-0]
1.48

Note, next up: CCCCCCCC(CCCCC)C(=O)OCCCCCCC(O)(CCCCCCOC(=O)C(CCCCC)CCCCCCC)CCCCOC(=O)C1CCN(C)CC1 (centres unmarked) [CL15F 9-5]
1.11

Note, next up: CCCCCCCCCCCCCCC(C)C(=O)OCCCCCCC(O)(CCCCCCOC(=O)C(C)CCCCCCCCCCCCCC)CCCCOC(=O)C1CCN(C)CC1 (centres unmarked) [CL15F 16-1]
1.37

Note, next up: CCCCCCCCC(CCCCCCCC)C(=O)OCCCCCCC(O)(CCCCCCOC(=O)C(CCCCCCCC)CCCCCCCC)CCCCOC(=O)C1CCN(C)CC1 [CL15F 10-8]
0.52

Note, next up: CCCCCCCC/C=C\CCCCCCCC(=O)OCCCCCCC(O)(CCCCCCOC(=O)CCCCCCC/C=C\CCCCCCCC)CCCCOC(=O)C1CCN(C)CC1 [CL15H6, reference compound]
1.99

Note, next up: CCCCCCCCC(CCCCCC)C(=O)OCCCCCCC(O)(CCCCCCOC(=O)C(CCCCCC)CCCCCCCC)CCCCOC(=O)C1CCN(C)CC1 (centres unmarked)
1.52

Note, next up: CCCCC/C=C\C/C=C\CCCCCCCCC(CCCCCCCC/C=C\C/C=C\CCCCC)OC(=O)CCCN(C)C [MC3, D-Lin-MC3-DMA, reference compound]
1

Note, next up: CCCCCCCCCC(CCCCC)C(=O)OCCCCCCC(O)(CCCCCCOC(=O)C(CCCCC)CCCCCCCCC)CCCCOC(=O)C1CCN(C)CC1 (centres unmarked) [CL15F 11-5]
0.78

Note, next up: CCCCCCCCCCC(CCCC)C(=O)OCCCCCCC(O)(CCCCCCOC(=O)C(CCCC)CCCCCCCCCC)CCCCOC(=O)C1CCN(C)CC1 (centres unmarked) [CL15F 12-4]
0.81

* * *

- System: liver
- PROCEDURE_SUMMARY: In vivo Fluc activity of FlucmRNA-loaded LNP by in vivo imaging, liver
- MEASUREMENT_PARAMETERS: Balb/c mice, FlucmRNA-loaded LNP i.v. 0.1 mg mRNA/kg, 6 hours
- Procedure: Then, each prepared FlucmRNA-loaded lipid nanoparticles were administered to Balb/c mice (Charles River Laboratories Japan, Inc., 7 weeks old, female) and in vivo gene expression activity was examined. Specifically, each FlucmRNA-loaded lipid nanoparticles were intravenously administered to Balb/c mice at 0.1 mg mRNA/kg, and Fluc activities in the liver and spleen at 6 hours later were measured. […]
METRIC: Fluc Activity in liver
The answer consists of two parts: a number and, after it, its unit.

Lab note: need Fluc Activity in liver with liver for entry CCCCCCCCCCC(CCCC)C(=O)OCCCCCCC(O)(CCCCCCOC(=O)C(CCCC)CCCCCCCCCC)CCCCN(CCC)CCC (stereo not drawn) [CL4F 12-4] , please look it up.
7.70E+07 Avg Radiance [p/s/cm2/sr]

Note, next up: CCCCCCCCCCCCC(CC)C(=O)OCCCCCCC(O)(CCCCCCOC(=O)C(CC)CCCCCCCCCCCC)CCCCOC(=O)C1CCN(C)CC1 (stereo not drawn) [CL15F 14-2]
1.03E+07 Avg Radiance [p/s/cm2/sr]

Note, next up: CCCCCCCCCC(CCCCC)C(=O)OCCCCCCC(O)(CCCCCCOC(=O)C(CCCCC)CCCCCCCCC)CCCCOC(=O)C1CCN(C)CC1 (stereo not drawn) [CL15F 11-5]
9.38E+06 Avg Radiance [p/s/cm2/sr]

Note, next up: CCCCCC(CCC)C(=O)OCCCCCCC(O)(CCCCCCOC(=O)C(CCC)CCCCC)CCCCOC(=O)C1CCN(C)CC1 (stereo not drawn) [CL15F 7-3]
5.34E+06 Avg Radiance [p/s/cm2/sr]

Note, next up: CCCCC(CCCC)C(=O)OCCCCCCC(O)(CCCCCCOC(=O)C(CCCC)CCCC)CCCCN(CCC)CCC [CL4F 6-4]
2.17E+05 Avg Radiance [p/s/cm2/sr]

Note, next up: CCCN(CCC)CCCCC(O)(CCCCCCOC(=O)C(CCC(C)CC(C)(C)C)C(C)CC(C)(C)C)CCCCCCOC(=O)C(CCC(C)CC(C)(C)C)C(C)CC(C)(C)C (stereo not drawn) [CL4G6]
4.58E+07 Avg Radiance [p/s/cm2/sr]
